We begin with a simple list: items and their reported K.
system: Escherichia coli K-12; experiment: Irreversible inhibition of Escherichia coli K-12 SH642 GGT using gamma-Glu-AMC as substrate assessed as association rate constant by […] analysis
State the result as a value with its unit after it.

COP(=O)(CCC(N)C(=O)O)Oc1cccc(CCC(=O)O)c1 (mixture of isomers) : 71 M⁻¹ s⁻¹
COP(=O)(CCC(N)C(=O)O)Oc1cccc(CC(=O)O)c1 (stereo not given) : 150 M⁻¹ s⁻¹
COP(=O)(CCC(N)C(=O)O)Oc1cccc(CC(N)=O)c1 (mixture of isomers) : 400 M⁻¹ s⁻¹
COP(=O)(CCC(N)C(=O)O)Oc1ccccc1 (stereo not given) : 120 M⁻¹ s⁻¹
NC(CCP(=O)(Oc1ccccc1)Oc1ccccc1)C(=O)O (racemic) : 27.8 M⁻¹ s⁻¹

Moving on to the next compound.
Short answer for COP(=O)(CCC(N)C(=O)O)Oc1cccc(C(=O)O)c1 (mixture of isomers) : K was 450 M⁻¹ s⁻¹

---

test: Cytotoxicity against CHL cells assessed as growth rate at 211 ug/ml preincubated for 6 hrs followed by 18 hrs incubation in fresh medium in presence of S9 fraction by MTT assay relative to control; assay type: toxicity, cell-based, Cricetulus griseus; conditions: chinese hamster, read-out: Activity
Attribute measured: viability at 18 h, 211 ug/ml (%)
Give the value, in units of %, as a plain number.

Short answer for COP(=O)(CCC(N)C(=O)O)Oc1cccc(CC(=O)O)c1 (stereo unspecified) : viability at 18 h, 211 ug/ml was 98.8

---

test system: Escherichia coli K-12; assay: Irreversible inhibition of Escherichia coli K-12 SH642 GGT using gamma-Glu-AMC as substrate assessed as association rate constant by […] analysis
Attribute measured: K (M⁻¹ s⁻¹)
Give the value, in units of M⁻¹ s⁻¹, as a plain number.

# annotated cases, reported K shown
COP(=O)(CCC(N)C(=O)O)Oc1ccc(C(=O)O)cc1 (mixture of isomers) : 3200
CCOC(=O)Cc1cccc(OP(=O)(CCC(N)C(=O)O)OC)c1 (mixture of isomers) : 120
COP(=O)(CCC(N)C(=O)O)Oc1cccc([N+](=O)[O-])c1 (mixture of isomers) : 5100

Moving on to the next molecule.
Short answer for COP(=O)(CCC(N)C(=O)O)Oc1ccc(CC(=O)O)cc1 (centres undefined) : K was 210
